molecular target: UniProt:O14842; assay: Inositol Phosphate Turnover (IP1) Assay 2; assay type: cell-based; parameters: expressed in transfected cells; host or cells: HEK cells stably expressing the aequorin reporter; conditions: HEK cells stably expressing human GPR40, 384-well, CisBio IP-One kit
Sequence (O14842 whole entry): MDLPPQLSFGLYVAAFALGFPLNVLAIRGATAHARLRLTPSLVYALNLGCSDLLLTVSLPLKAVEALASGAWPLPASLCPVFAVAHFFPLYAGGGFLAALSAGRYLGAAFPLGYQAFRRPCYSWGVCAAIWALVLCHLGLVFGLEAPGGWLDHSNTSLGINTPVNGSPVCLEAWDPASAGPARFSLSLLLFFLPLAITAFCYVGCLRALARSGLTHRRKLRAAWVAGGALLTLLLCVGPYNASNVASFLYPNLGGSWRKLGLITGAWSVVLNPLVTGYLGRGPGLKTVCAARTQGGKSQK
pEC50: −log10 of the molar value.
assay.metric: pEC50

Cc1nc(OCCC(C)(O)CO)ccc1-c1cc(COc2cc3c(cn2)[C@H]2[C@@H](C3)[C@@H]2C(=O)O)c(F)cc1C(F)(F)F (stereo partly drawn) | 8.51
Cc1cc(CCC(C)(O)CO)cc(C)c1-c1cc(COc2cc3c(cn2)[C@H]2[C@@H](C3)[C@@H]2C(=O)O)c(F)cc1F (stereo partly drawn) | 8.28
Cc1cc(OCC(C(C)(C)O)C(C)(C)O)cc(C)c1-c1cc(COc2cc3c(cn2)[C@H]2[C@@H](C3)[C@@H]2C(=O)O)c(F)cc1F | 8.51

P: Cc1cc(OCC[C@@H](O)CO)cc(C)c1-c1cc(COc2cc3c(cn2)[C@H]2[C@@H](C3)[C@@H]2C(=O)O)c(F)cc1F
Q: C[C@@](O)(CO)CCOc1ccc(-c2cc(COc3cc4c(cn3)[C@H]3[C@@H](C4)[C@@H]3C(=O)O)c(F)cc2F)c(Cl)c1
R: Cc1cc(OCC[C@H](O)CO)cc(C)c1-c1cc(COc2cc3c(cn2)[C@H]2[C@@H](C3)[C@@H]2C(=O)O)c(F)cc1F
Sort (3 compounds) by pEC50: min first. # answer = labels listed in requested order P, Q, R
